- Measured target: T1, human TNFR1 on cells (HT1080, HeLa, Kym-1) (human, UniProt P19438 30-455)
- T1 sequence (looked up): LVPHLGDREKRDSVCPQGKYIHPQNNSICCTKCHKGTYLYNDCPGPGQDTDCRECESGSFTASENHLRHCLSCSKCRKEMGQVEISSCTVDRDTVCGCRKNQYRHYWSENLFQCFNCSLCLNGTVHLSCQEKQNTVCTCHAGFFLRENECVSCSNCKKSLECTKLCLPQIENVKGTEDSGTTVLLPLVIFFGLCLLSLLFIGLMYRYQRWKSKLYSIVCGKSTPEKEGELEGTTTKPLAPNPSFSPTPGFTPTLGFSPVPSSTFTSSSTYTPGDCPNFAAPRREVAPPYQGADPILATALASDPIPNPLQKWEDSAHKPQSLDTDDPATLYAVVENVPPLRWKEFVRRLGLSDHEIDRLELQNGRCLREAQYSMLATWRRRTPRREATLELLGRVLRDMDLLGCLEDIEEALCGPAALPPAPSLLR
- Protocol text: cell-based or functional assay
Assay endpoint: IL-8 release (pg/ml), HT1080 cells (pg/mL)
// note: answer is a bare numeric in pg/mL

For orientation, consider the following solved cases.
FabATROSAB (Fab, V domains shown, Fab of ATROSAB; also called Fab fragment of ATROSAB; ATROSAB Fab) VH: QVQLVQSGAEVKKPGSSVKVSCKASGYTFTDFYINWVRQAPGQGLEWIGEIYPYSGHAYYNEKFKARVTITADKSTSTAYMELSSLRSEDTAVYYCARWDFLDYWGQGTTVTVSS VL: DIVMTQSPLSLPVTPGEPASISCRSSQSLLHSNGNTYLHWYLQKPGQSPQLLIYTVSNRFSGVPDRFSGSGSGTDFTLKISRVEAEDVGVYYCSQSTHVPYTFGGGTKVEIKR: 128
IgG13.7 (antibody, V domains shown, Made transiently in HEK293T cells; also called IgG-FRK13.7) VH: HVQLVQSGAEVKKPGSSVKVSCKASGYTFTDFYINWVRQAPGQGLEWIGEIVPSQGEAKYNDKFKARVTITADKSTSTAYMELSSLRSEDTAVYYCARWDFLDYWGQGTTVTVSS VL: DVQMTQSPSSLSASVGDRVTITCRSSQSLLHSNGNTYLHWYQQKPGKAPKLLIYTVSNRFSGVPSRFSGSGSGTDFTLTISSLQPEDFATYYCSQSTHVPYTFGGGTKVEIK: 4230
ATROSAB (antibody, IgG1, V domains shown, Humanized full-length IgG1 with a modified Fc region deficient in mediating effector functions (made according to WO2012035141); also called full length IgG ATROSAB) VH: QVQLVQSGAEVKKPGSSVKVSCKASGYTFTDFYINWVRQAPGQGLEWIGEIYPYSGHAYYNEKFKARVTITADKSTSTAYMELSSLRSEDTAVYYCARWDFLDYWGQGTTVTVSS VL: DIVMTQSPLSLPVTPGEPASISCRSSQSLLHSNGNTYLHWYLQKPGQSPQLLIYTVSNRFSGVPDRFSGSGSGTDFTLKISRVEAEDVGVYYCSQSTHVPYTFGGGTKVEIKR: 240

Read the next record carefully.
Name the recorded IL-8 release (pg/ml), HT1080 cells of the binder listed here: Fab13.7 (Fab, V domains shown, also called Fab-FRK13.7; Fab3.7) VH: HVQLVQSGAEVKKPGSSVKVSCKASGYTFTDFYINWVRQAPGQGLEWIGEIVPSQGEAKYNDKFKARVTITADKSTSTAYMELSSLRSEDTAVYYCARWDFLDYWGQGTTVTVSS VL: DVQMTQSPSSLSASVGDRVTITCRSSQSLLHSNGNTYLHWYQQKPGKAPKLLIYTVSNRFSGVPSRFSGSGSGTDFTLTISSLQPEDFATYYCSQSTHVPYTFGGGTKVEIKR
138
